Reference for the values: ChEMBL document CHEMBL5550181

# TARGET DESC: Proteasome subunit beta type-8 (Homo sapiens, UniProt P28062)
# Sequence (P28062 whole entry): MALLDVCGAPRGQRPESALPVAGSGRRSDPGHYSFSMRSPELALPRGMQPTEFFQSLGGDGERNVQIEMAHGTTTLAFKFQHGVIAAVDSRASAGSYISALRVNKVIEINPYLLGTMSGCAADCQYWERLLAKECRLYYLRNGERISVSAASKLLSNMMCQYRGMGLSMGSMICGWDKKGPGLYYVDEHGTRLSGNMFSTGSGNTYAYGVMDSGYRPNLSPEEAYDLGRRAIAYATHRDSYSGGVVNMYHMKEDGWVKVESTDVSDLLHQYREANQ
# ASSAY TEXT: Inhibition of human LMP7 beta -5i subunit using Ac-ANW-AMC as substrate preincubated with compound for 30 mins followed by substrate addition and measured after 1 hr by fluorescence based analysis
Label key: t means IC50 under 900 nM; f means IC50 of 900 nM or more.

Examples with answers:
CC(C)C[C@H](NC(=O)c1cn(C2CCCCC2)nn1)B(O)O ... t
O=C(N[C@H](B(O)O)C1CCCC1)c1cn(C2CCCCC2)nn1 ... t
CC(C)C[C@H](NC(=O)c1cc(C2CCCCC2)no1)B(O)O ... t
O=C(N[C@@H](CC1CCC1)B(O)O)c1cn(C2CCCCC2)nn1 ... t
Cc1c(C(=O)N[C@@H](CC(C)C)B(O)O)nnn1C1CCCCC1 ... f

Request: Consider the compound CC(C)C[C@H](NC(=O)c1cc(C2CCCCC2)n(C)n1)B(O)O . Is its IC50 strictly less than 900 nM?
Result: f

Request: Decide: IC50 of O=C(N[C@@H](CC1CCCC1)B(O)O)c1cn(C2CCCCC2)nn1 strictly below 900 nM?
Result: t

* * *

I'd appreciate it if you could supply Ratio IC50 values for the items below.
# Species on record: Homo sapiens
# ASSAY TEXT: Selectivity index, ratio of IC50 for inhibition of human 20S proteosome beta5c subunit using Ac-WLA-AMC as substrate to IC50 for inhibition of human LMP7 beta -5i subunit using Ac-ANW-AMC as substrate
Numbers only.

Provide Ratio IC50 for all items below, preserving their order.
1. CC(C)C[C@H](NC(=O)c1cn(C2CCCCC2)nn1)B(O)O
2. Cc1c(C(=O)N[C@@H](CC(C)C)B(O)O)nnn1C1CCCCC1
3. O=C(N[C@@H](CC1CCC1)B(O)O)c1cn(C2CCCCC2)nn1
4. O=C(N[C@@H](CC1CCCC1)B(O)O)c1cn(C2CCCCC2)nn1
5. CC(C)C[C@H](NC(=O)c1ccc(C2CCCCC2)nn1)B(O)O
6. CC(C)C[C@H](NC(=O)c1cnn(C2CCCCC2)n1)B(O)O

Result:
[44, 39, 66, 244, 36, 4]

* * *

# Species: Homo sapiens
# ASSAY TEXT: Selectivity index, ratio of IC50 for inhibition of human 20S proteosome beta5c subunit using Ac-WLA-AMC as substrate to IC50 for inhibition of human LMP7 beta -5i subunit using Ac-ANW-AMC as substrate
Response key: TRUE means Ratio IC50 >= 20; FALSE means Ratio IC50 < 20.

Look over these answered cases.
CC(C)C[C@H](NC(=O)c1cc(C2CCCCC2)nn1C)B(O)O ... TRUE
O=C(N[C@H](B(O)O)C1CCC1)c1cn(C2CCCCC2)nn1 ... FALSE
CC(C)C[C@H](NC(=O)c1cc(C2CCCCC2)on1)B(O)O ... TRUE
O=C(N[C@@H](Cc1ccccc1)B(O)O)c1cn(C2CCCCC2)nn1 ... TRUE
O=C(N[C@@H](CC1CCCCC1)B(O)O)c1cn(C2CCCCC2)nn1 ... TRUE
CC(C)C[C@H](NC(=O)c1cc(C2CCCCC2)no1)B(O)O ... FALSE
COc1ccc([C@@H](O)[C@H](NC(=O)[C@H](C)NC(=O)CN2CCOCC2)C(=O)N[C@@H](CC2=CCCC2)C(=O)[C@@]2(C)CO2)cc1 [ZETOMIPZOMIB] ... FALSE
O=C(N[C@H](B(O)O)C1CCCC1)c1cn(C2CCCCC2)nn1 ... TRUE

Request: In plain terms: is recorded Ratio IC50 at least 20 for O=C(N[C@H](B(O)O)C1CCCCC1)c1cn(C2CCCCC2)nn1 ?
Result: TRUE

Request: Record O=C(N[C@@H](Cc1coc2ccccc12)B(O)O)[C@@H]1C[C@H]2CC[C@@H]1O2 ; criterion: Ratio IC50 no lower than 20. Met?
Result: TRUE

* * *

Consider the following compounds; for each one, report its pIC50.
# TARGET DESC: Proteasome Macropain subunit MB1 (Homo sapiens)
# ASSAY TEXT: Inhibition of human 20S proteosome beta5c subunit using Ac-WLA-AMC as substrate preincubated with compound for 30 mins followed by substrate addition and measured after 1 hr by fluorescence based analysis
Give bare numbers, as −log10 of the molar value.

Example entries begin here.
O=C(N[C@@H](Cc1ccccc1)B(O)O)c1cn(C2CCCCC2)nn1 ... 6.52
CC(C)C[C@H](NC(=O)c1cc(C2CCCCC2)nn1C)B(O)O ... 4.71

// next entry
Request: Name the recorded pIC50 of O=C(N[C@H](B(O)O)C1CCC1)c1cn(C2CCCCC2)nn1 , assay system Proteasome Macropain subunit MB1 (Homo sapiens).
Result: 5.31

* * *

# ASSAY TEXT: Drug metabolism in human liver microsomes assessed as reactive metabolite formation by measuring dGSH trapping measured per mg of protein incubated for 60 mins in presence of NADPH by HPLC analysis
# Assay type: ADME, Microsome
# CONDITION LABEL: 1 h
Output condition met for Drug metabolism not less than 700 pmol/h; output condition not met otherwise.

Solved entries (count: 3):
O=C(N[C@@H](CC1CCCC1)B(O)O)c1cn(C2CCCCC2)nn1 ... condition not met
CC(C)C[C@H](NC(=O)c1cn(C2CCCCC2)nn1)B(O)O ... condition met
O=C(N[C@@H](Cc1ccccc1)B(O)O)c1cn(C2CCCCC2)nn1 ... condition met

Request: Decide: is the reported value of Drug metabolism for O=C(N[C@H](B(O)O)C1CCCCC1)c1cn(C2CCCCC2)nn1 equal to or greater than 700 pmol/h?
Result: condition not met

* * *

Exercise: for every item that follows, state its recorded IC50.
# TARGET DESC: Proteasome subunit beta type-9 (Homo sapiens)
# Sequence (P28065 whole entry): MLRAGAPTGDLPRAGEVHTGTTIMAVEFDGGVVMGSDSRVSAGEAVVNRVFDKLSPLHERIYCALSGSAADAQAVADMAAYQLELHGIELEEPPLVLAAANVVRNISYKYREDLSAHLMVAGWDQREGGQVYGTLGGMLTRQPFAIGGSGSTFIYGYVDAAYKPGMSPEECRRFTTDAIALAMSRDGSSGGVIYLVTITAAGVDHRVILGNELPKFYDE
# ASSAY TEXT: Inhibition of human LMP2 beta-1i subunit using Ac-PAL-AMC as substrate preincubated with compound for 30 mins followed by substrate addition and measured after 1 hr by fluorescence based analysis
One number for each entry, in µM.

Use these answered entries as a reference point.
CC(C)C[C@H](NC(=O)c1cc(C2CCCCC2)n(C)n1)B(O)O ... 0.188
O=C(N[C@H](B(O)O)C1CCCC1)c1cn(C2CCCCC2)nn1 ... 0.018
CC(C)C[C@H](NC(=O)c1cc(C2CCCCC2)on1)B(O)O ... 0.009
COc1ccc([C@@H](O)[C@H](NC(=O)[C@H](C)NC(=O)CN2CCOCC2)C(=O)N[C@@H](CC2=CCCC2)C(=O)[C@@]2(C)CO2)cc1 [ZETOMIPZOMIB] ... 0.557
O=C(N[C@@H](Cc1ccccc1)B(O)O)c1cn(C2CCCCC2)nn1 ... 0.005

Please state IC50 for every compound in the list that follows.
1. O=C(N[C@H](B(O)O)C1CCCCC1)c1cn(C2CCCCC2)nn1
2. Cc1c(C(=O)N[C@@H](CC(C)C)B(O)O)nnn1C1CCCCC1
3. CC(C)C[C@H](NC(=O)c1cnn(C2CCCCC2)n1)B(O)O
4. CC(C)C[C@H](NC(=O)c1ccc(C2CCCCC2)nn1)B(O)O
5. CC(C)C[C@H](NC(=O)c1cnn(C2CCCCC2)c1)B(O)O
6. CC(C)C[C@H](NC(=O)c1cn(C2CCCCC2)nn1)B(O)O
7. CC(C)C[C@H](NC(=O)c1cc(C2CCCCC2)nn1C)B(O)O
8. CC(C)C[C@H](NC(=O)c1cc(C2CCCCC2)no1)B(O)O

Result:
1: 0.01; 2: 0.189; 3: 0.062; 4: 0.01; 5: 0.132; 6: 0.003; 7: 0.226; 8: 0.005

* * *

# ASSAY TEXT: Permeability of the compound by PAMPA assay
# Assay type: ADME
# CONDITION LABEL: read-out: permeability
REPORTED METRIC: Papp (×10⁻⁶ cm/s)
Numbers only, in ×10⁻⁶ cm/s.

Request: Could you please provide reported Papp for O=C(N[C@H](B(O)O)C1CCCCC1)c1cn(C2CCCCC2)nn1 ? Thanks!
Result: 11.9

* * *

What pIC50 was measured for each of the following?
# TARGET DESC: Proteasome Macropain subunit MB1 (Homo sapiens)
# Sequence (P28074 whole entry): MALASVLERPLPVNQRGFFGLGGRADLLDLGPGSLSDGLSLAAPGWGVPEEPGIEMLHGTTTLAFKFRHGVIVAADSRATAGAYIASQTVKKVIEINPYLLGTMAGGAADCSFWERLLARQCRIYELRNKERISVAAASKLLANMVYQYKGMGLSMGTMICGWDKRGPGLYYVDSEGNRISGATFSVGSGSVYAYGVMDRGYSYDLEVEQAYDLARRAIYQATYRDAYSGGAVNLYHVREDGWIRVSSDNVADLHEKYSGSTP
# ASSAY TEXT: Inhibition of human 20S proteosome beta5c subunit using Ac-WLA-AMC as substrate preincubated with compound for 30 mins followed by substrate addition and measured after 1 hr by fluorescence based analysis
Answers are plain numbers, as −log10 of the molar value.

Below: 3 compounds and their reported pIC50.
CC(C)C[C@H](NC(=O)c1cc(C2CCCCC2)no1)B(O)O ... 5.43
COc1ccc([C@@H](O)[C@H](NC(=O)[C@H](C)NC(=O)CN2CCOCC2)C(=O)N[C@@H](CC2=CCCC2)C(=O)[C@@]2(C)CO2)cc1 [ZETOMIPZOMIB] ... 6.14
O=C(N[C@H](B(O)O)C1CCCCC1)c1cn(C2CCCCC2)nn1 ... 4.35

I'm hoping you can list pIC50 for every compound here, please.
1. O=C(N[C@H](B(O)O)C1CCCC1)c1cn(C2CCCCC2)nn1
2. CC(C)C[C@H](NC(=O)c1ccc(C2CCCCC2)nn1)B(O)O
3. O=C(N[C@@H](CC1CCCCC1)B(O)O)c1cn(C2CCCCC2)nn1
4. CC(C)C[C@H](NC(=O)c1cc(C2CCCCC2)on1)B(O)O
5. Cc1c(C(=O)N[C@@H](CC(C)C)B(O)O)nnn1C1CCCCC1

Result:
1: 5.28; 2: 5.53; 3: 4.71; 4: 5.53; 5: 4.32
